# STUDY SYSTEM: Human recombinant PDE10A (hPDE10A) (Homo sapiens)
# Construct: His tag (inferred from metal chelate purification); made in house; host or cells: Sf9 insect cells (baculovirus)
# Sequence (Q9Y233 267-1055): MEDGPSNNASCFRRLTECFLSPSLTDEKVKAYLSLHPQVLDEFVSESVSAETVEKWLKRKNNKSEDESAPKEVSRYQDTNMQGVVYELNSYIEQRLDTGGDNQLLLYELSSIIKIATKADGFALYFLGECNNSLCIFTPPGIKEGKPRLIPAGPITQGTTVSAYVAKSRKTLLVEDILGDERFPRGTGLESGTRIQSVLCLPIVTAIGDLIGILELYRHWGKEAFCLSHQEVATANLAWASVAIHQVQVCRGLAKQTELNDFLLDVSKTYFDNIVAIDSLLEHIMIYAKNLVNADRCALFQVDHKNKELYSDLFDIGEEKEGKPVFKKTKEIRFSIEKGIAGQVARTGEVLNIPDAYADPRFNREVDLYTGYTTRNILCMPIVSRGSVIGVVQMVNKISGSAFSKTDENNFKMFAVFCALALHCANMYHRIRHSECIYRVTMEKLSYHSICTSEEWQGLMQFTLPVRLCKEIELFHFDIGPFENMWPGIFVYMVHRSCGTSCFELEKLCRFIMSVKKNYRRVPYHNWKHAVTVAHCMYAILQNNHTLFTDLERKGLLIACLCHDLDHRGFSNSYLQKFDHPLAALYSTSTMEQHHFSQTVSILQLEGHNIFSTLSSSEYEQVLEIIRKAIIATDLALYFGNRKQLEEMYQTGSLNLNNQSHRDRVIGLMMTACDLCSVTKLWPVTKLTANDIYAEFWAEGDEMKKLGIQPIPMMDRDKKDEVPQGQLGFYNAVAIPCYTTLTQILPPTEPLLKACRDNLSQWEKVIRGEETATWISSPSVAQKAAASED
# EXPERIMENT NOTES: In vitro assay PDE10A, human clone (SPA, 3H-cAMP hydrolysis)
# Assay type: biochemical
# DETAILS: human clone by default (no (r) mark); read-out: hPDE10A2 or rPDE10A2 Emax

{"ITEM SMILES": "C[C@@H]1CCN(C(=O)c2cccc(OC(F)(F)F)c2F)C[C@H]1c1cc(C(F)F)nc2ncnn12", "STUDY SYSTEM": "Human recombinant PDE10A (hPDE10A) (Homo sapiens)", "Emax, %": 94}
{"ITEM SMILES": "O=C(c1cc2n(n1)CCO2)N1[C@H]2CC[C@H](c3cc(C(F)F)nc4ncnn34)[C@@H]1CC2", "STUDY SYSTEM": "Human recombinant PDE10A (hPDE10A) (Homo sapiens)", "Emax, %": 44}
{"ITEM SMILES": "Cc1ccc(C(=O)N2[C@H]3CC[C@H](c4cc(C(F)F)nc5ncnn45)[C@@H]2CC3)o1", "STUDY SYSTEM": "Human recombinant PDE10A (hPDE10A) (Homo sapiens)", "Emax, %": 70}
{"ITEM SMILES": "Cc1cc(C)cc(C(=O)N2[C@H]3CC[C@H](c4cc(C(F)F)nc5ncnn45)[C@@H]2CC3)c1", "STUDY SYSTEM": "Human recombinant PDE10A (hPDE10A) (Homo sapiens)", "Emax, %": 93}
